For each of the compounds below, state its dissolution efficiency.
Molecular target: preformed Aβ fibrillar aggregates (Homo sapiens, UniProt P05067)
Construct: is a 42 amino acid proteolytic product from the amyloid precursor protein; purchased Invitrogen
Sequence (P05067 672-713 limits assumed): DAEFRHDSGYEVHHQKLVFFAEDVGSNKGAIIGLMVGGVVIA
Assay: Dot blot assay of dissolution of preformed Aβ fibrillar aggregates
Format: biochemical
Details: Aβ aggregates 10 μM, NMIs 20 μM, 48 h
Numbers only, in %.

Use these answered entries as a reference point.
substanceSmiles: CN(C)c1ccc2c3c(cccc13)C(=O)N(CCN(Cc1ccccn1)Cc1ccccn1)C2=O
testValue: 25
--
substanceSmiles: O=C1c2cccc3c(N(Cc4ccccn4)Cc4ccccn4)ccc(c23)C(=O)N1CCN(Cc1ccccn1)Cc1ccccn1
testValue: 43

Turning now to a further record.
Notebook entry, preformed Aβ fibrillar aggregates (Homo sapiens, UniProt P05067) assay: dissolution efficiency of `O=C1c2cccc3c(N(Cc4ccccn4)Cc4ccccn4)ccc(c23)C(=O)N1CCc1ccc(O)c(O)c1` = ?
52
